# measurement_target: recombinant rat GluN1/GluN2C (Rattus norvegicus)
# Construct: expressed in transfected cells; host or cells: Xenopus laevis oocytes (Ecocyte) injected with in vitro transcribed cRNA
# Sequence (Q00961 20-1237, other chains not shown): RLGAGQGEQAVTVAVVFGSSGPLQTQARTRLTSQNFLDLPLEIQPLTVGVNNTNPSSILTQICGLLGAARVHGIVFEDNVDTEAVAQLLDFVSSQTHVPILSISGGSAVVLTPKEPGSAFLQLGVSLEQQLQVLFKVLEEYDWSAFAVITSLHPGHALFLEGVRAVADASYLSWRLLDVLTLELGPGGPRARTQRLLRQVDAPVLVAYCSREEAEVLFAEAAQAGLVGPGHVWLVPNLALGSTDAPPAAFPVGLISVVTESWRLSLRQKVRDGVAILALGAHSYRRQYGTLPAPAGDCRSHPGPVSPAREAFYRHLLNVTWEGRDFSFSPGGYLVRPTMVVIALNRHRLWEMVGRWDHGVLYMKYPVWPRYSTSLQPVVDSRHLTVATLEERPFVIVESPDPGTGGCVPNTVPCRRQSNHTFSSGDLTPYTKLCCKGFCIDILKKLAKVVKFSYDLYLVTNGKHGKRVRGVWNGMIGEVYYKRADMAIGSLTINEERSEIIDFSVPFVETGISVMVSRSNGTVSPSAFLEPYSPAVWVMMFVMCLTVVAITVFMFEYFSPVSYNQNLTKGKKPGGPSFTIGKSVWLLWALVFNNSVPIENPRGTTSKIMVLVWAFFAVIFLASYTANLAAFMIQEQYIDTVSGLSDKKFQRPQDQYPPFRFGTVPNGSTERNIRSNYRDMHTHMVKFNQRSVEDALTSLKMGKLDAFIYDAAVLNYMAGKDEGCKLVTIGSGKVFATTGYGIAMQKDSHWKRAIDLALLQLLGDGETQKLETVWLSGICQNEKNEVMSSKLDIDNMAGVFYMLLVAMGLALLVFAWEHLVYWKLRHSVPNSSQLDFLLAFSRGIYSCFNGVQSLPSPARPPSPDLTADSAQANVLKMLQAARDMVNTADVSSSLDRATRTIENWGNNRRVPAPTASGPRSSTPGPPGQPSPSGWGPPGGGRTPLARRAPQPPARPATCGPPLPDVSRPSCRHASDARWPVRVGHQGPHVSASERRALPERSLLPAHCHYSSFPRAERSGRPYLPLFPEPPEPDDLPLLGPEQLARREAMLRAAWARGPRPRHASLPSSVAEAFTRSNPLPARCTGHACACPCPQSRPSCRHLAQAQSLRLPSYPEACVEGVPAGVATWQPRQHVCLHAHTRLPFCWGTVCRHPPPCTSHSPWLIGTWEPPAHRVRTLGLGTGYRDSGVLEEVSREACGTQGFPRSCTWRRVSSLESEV
# run_description: Two-electrode voltage-clamp (TEVC) recordings in Xenopus laevis oocytes, GluN1/GluN2C
# Type: cell-based
# details: at 30 µM
endpoint: GluN2C response % at 30 µM (% at 30)
Please give a number only; it is taken to be in % at 30.

Solved cases (4 shown):
molecule | endpoint | obs_value
CCOc1ccc(OCC2c3ccc(OC(C)C)cc3CCN2C(=O)C=C(C)C(F)(F)F)cc1 (centres unmarked) [1180-263] | GluN2C response % at 30 µM | 165
CC=CCC(=O)N1CCc2cc(OC)ccc2C1COc1ccc(OC)cc1 (centres unmarked) [1180-235] | GluN2C response % at 30 µM | 184
COc1ccc(OCC2c3ccc(OC)cc3CCN2C(=O)c2cnc(Cl)s2)cc1 (centres unmarked) [1180-241] | GluN2C response % at 30 µM | 114
CCOCC(=O)N1CCc2cc(OC)ccc2C1COc1ccc(OC)cc1 (centres unmarked) [1180-240] | GluN2C response % at 30 µM | 115

Turning now to a further molecule:
Entry COc1ccc(OCC2c3ccc(OC)cc3CCN2C(=O)C=CCl)cc1 (centres unmarked) [1180-251] has what GluN2C response % at 30 µM?
99

---

Let's look at some compounds and their measured EC50.
# measurement_target: recombinant rat GluN1/GluN2D (Rattus norvegicus, UniProt P35439+Q62645)
# Construct: expressed in transfected cells; host or cells: Xenopus laevis oocytes (Ecocyte) injected with in vitro transcribed cRNA
# Sequence (Q62645 28-1323, other chains not shown): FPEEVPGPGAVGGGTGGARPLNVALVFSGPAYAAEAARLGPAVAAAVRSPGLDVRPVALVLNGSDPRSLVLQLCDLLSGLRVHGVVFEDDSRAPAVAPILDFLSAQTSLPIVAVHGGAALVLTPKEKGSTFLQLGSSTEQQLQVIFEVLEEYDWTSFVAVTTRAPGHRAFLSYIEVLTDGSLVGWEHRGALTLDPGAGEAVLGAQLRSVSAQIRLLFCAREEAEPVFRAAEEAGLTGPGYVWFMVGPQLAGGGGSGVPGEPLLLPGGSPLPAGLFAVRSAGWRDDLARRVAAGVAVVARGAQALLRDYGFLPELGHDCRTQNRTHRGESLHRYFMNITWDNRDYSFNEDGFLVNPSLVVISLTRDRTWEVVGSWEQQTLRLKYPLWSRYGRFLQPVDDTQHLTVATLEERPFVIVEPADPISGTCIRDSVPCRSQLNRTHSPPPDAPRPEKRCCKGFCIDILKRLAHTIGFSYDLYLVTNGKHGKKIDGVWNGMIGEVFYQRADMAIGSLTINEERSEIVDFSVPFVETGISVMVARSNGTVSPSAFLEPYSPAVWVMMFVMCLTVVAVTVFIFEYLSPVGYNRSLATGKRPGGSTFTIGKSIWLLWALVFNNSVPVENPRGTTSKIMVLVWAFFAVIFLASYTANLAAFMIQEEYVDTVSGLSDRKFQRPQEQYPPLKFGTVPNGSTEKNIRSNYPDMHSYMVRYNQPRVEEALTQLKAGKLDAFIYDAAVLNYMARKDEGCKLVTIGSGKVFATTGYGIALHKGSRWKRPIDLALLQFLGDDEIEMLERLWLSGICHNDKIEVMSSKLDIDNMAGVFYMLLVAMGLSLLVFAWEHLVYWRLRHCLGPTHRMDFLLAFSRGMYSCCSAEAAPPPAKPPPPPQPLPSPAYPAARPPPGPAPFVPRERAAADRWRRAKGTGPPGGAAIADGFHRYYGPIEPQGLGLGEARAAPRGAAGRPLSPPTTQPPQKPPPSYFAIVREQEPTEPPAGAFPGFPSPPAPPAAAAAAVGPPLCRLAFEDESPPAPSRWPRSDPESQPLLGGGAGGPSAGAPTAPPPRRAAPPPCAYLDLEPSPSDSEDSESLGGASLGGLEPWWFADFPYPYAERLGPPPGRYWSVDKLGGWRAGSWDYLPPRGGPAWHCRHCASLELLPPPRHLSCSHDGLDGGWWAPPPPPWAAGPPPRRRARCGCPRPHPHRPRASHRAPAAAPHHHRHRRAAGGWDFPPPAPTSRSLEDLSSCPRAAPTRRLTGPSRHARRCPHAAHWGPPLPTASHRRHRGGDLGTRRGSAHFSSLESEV
# run_description: Two-electrode voltage-clamp (TEVC) recordings in Xenopus laevis oocytes, GluN1/GluN2D
# Type: cell-based
# details: Tables 11-13; read-out: EC50 & Max Effect: 2D
Your answer should be a plain number; it is taken to be in µM.

Completed entries (count: 2):
compound | EC50 / µM
COc1ccc(OCC2c3ccc(SCc4ccccc4)cc3CCN2C(=O)c2cccc(Cl)c2)cc1 (stereo not drawn) [drawing 33 R1=Cl R2=H R3=H R4=SBn R5=H] | 0.43
CCOc1ccc(OCC2c3ccc(OC4CCCC4)cc3CCN2C(=O)c2cccc(F)c2)cc1 (stereo not drawn) [1180-112] | 4.2

Now consider a different compound.
# query: EC50 of entry COc1ccc(OCC2c3cc(OC)c(OC)cc3CCN2C(=O)c2ccccc2)cc1 (stereo not drawn) [drawing 33 R1=H R2=H R3=H R4=OMe R5=OMe]
11.4

---

# measurement_target: recombinant rat GluN1/GluN2B (Rattus norvegicus)
# Construct: expressed in transfected cells; host or cells: Xenopus laevis oocytes (Ecocyte) injected with in vitro transcribed cRNA
# Sequence (Q00960 27-1482, other chains not shown): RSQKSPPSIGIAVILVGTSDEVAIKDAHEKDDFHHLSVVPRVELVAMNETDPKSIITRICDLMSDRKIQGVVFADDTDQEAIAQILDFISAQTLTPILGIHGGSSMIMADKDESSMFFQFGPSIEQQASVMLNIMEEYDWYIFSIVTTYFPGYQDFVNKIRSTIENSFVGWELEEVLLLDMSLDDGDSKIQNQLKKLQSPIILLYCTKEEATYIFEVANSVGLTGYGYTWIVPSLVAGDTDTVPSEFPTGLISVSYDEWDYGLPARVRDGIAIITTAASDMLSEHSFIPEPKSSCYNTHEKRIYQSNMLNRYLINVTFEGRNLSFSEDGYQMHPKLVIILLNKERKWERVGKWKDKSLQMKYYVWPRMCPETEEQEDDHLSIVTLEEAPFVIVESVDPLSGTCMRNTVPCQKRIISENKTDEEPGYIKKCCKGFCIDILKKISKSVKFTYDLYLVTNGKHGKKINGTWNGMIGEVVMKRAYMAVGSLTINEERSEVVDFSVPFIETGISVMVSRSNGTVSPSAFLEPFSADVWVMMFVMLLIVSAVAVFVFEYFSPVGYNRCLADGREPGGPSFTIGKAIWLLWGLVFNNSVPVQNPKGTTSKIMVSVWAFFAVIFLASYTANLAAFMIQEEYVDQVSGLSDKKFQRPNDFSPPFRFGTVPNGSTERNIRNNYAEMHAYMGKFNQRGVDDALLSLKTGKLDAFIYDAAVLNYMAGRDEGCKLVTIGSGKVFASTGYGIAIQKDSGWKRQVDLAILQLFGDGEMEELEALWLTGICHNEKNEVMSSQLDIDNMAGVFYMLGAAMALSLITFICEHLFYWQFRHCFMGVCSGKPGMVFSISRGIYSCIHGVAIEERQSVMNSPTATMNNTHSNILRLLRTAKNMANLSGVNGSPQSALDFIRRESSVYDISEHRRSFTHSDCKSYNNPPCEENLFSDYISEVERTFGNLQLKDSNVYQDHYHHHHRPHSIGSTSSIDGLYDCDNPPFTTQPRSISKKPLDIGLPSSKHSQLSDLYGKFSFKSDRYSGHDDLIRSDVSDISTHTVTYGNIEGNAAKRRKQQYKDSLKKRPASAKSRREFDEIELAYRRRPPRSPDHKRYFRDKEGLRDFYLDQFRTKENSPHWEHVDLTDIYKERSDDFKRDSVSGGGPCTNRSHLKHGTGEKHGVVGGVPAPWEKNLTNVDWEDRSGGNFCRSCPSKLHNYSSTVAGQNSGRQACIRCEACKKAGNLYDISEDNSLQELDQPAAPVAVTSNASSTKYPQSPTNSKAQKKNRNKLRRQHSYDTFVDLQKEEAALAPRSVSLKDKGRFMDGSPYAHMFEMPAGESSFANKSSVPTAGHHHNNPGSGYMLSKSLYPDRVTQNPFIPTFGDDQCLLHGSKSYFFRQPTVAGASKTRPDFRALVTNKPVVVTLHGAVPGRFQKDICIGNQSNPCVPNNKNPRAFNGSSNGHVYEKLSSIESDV
# run_description: Two-electrode voltage-clamp (TEVC) recordings in Xenopus laevis oocytes, GluN1/GluN2B
# Format: cell-based
# details: at 30 µM
GluN2B response % at 30 µM values by entry
Numeric answer only, unit % at 30 assumed.

Record excerpt, results attached:
molecule | obs_value
COc1ccc(OCC2c3ccc(OC)cc3CCN2C(=O)CCCC(F)(F)F)cc1 (stereo not drawn) [1180-252] | 96
CCOCC(=O)N1CCc2cc(OC)ccc2C1COc1ccc(OC)cc1 (stereo not drawn) [1180-240] | 100
CCOc1ccc(OCC2c3ccc(OC(C)C)cc3CCN2C(=O)C=C(C)C(F)(F)F)cc1 (stereo not drawn) [1180-263] | 145
COc1ccc(OCC2c3ccc(OC)cc3CCN2C(=O)c2coc(Cl)n2)cc1 (stereo not drawn) [1180-247] | 99
CC=CCC(=O)N1CCc2cc(OC)ccc2C1COc1ccc(OC)cc1 (stereo not drawn) [1180-235] | 103
COc1ccc(OCC2c3ccc(OC)cc3CCN2C(=O)C=CCl)cc1 (stereo not drawn) [1180-251] | 96
COc1ccc(OCC2c3ccc(OC)cc3CCN2C(=O)C=C(C)C(F)(F)F)cc1 (stereo not drawn) [1180-255] | 99

# lookup: GluN2B response % at 30 µM of COc1ccc(OCC2c3ccc(OC)cc3CCN2C(=O)c2cnc(Cl)s2)cc1 (stereo not drawn) [1180-241]
88

Reference for the values: patent US10647679B2
